system-name: MCT2-embigin (Homo sapiens, UniProt O60669, F262A)
Construct: fusion: embigin C-terminus joined by GGSG linker to MCT2 N-terminus, C-terminal twin-Strep tag; HEK-293F, DDM then GDN, heterodimer; in transport tests expressed as fusion in HEK-293T cells; with Embigin
assay-comment: bio-layer interferometry, SSA biosensor, […] fit
property-measured: pKd
Scale: pKd equals -log10([C]), with [C] in mol/L.

Ask: Form field - read-out: pKd; system: MCT2-embigin (Homo sapiens, UniProt O60669, F262A); submitted item: `Cc1cc(Nc2ncnc3ccc(NC4=NC(C)(C)CO4)cc23)ccc1Oc1ccn2ncnc2c1`
Result: 4.48

* * *

system-name: MCT2-embigin (Homo sapiens, UniProt O60669)
Construct: gene SLC16A7; fusion: embigin C-terminus joined by GGSG linker to MCT2 N-terminus, C-terminal twin-Strep tag; HEK-293F, DDM then GDN, heterodimer; in transport tests expressed as fusion in HEK-293T cells; with Embigin
assay-comment: bio-layer interferometry, SSA biosensor, […] fit
Format: binding
condition-notes: read-out: affinity (KD)
property-measured: pKd
Scale: pKd equals -log10([C]), with [C] in mol/L.

Ask: GET /values?readout=pKd&item= `Cc1n[nH]c(C)c1Cc1sc2c(c1C(=O)N1C[C@H](O)CO1)c(=O)n(C)c(=O)n2CC(C)C`
Result: 6.22

* * *

system-name: MCT2-embigin (Homo sapiens, UniProt O60669)
Construct: fusion: embigin C-terminus joined by GGSG linker to MCT2 N-terminus, C-terminal twin-Strep tag; HEK-293F, DDM then GDN, heterodimer; in transport tests expressed as fusion in HEK-293T cells; with Embigin
Sequence (O60669 1-478): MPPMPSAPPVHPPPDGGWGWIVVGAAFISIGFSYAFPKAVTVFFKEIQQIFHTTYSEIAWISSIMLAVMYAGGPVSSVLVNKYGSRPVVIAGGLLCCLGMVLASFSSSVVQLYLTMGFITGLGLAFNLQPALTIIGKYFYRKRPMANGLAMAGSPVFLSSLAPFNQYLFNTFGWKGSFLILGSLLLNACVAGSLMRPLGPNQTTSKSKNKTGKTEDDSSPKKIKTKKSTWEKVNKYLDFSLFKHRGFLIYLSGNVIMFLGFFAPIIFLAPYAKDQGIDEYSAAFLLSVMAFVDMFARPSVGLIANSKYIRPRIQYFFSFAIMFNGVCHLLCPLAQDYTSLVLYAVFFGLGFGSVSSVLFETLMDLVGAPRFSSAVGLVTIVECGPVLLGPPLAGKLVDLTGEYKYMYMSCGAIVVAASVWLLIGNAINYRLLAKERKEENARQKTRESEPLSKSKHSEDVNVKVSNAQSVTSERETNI
Sequence (Q6PCB8 33-327 partner): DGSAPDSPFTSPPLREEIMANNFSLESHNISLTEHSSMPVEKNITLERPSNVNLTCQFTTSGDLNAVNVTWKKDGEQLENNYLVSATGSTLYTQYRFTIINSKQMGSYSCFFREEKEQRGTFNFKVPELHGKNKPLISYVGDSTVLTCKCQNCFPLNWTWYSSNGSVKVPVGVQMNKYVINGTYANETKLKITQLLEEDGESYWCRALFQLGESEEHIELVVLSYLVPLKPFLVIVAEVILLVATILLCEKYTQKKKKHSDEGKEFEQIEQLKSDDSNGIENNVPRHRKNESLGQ
assay-comment: pyruvate uptake, pyronicSF fluorescence, transfected HEK-293T cells
property-measured: pIC50
Scale: pIC50 equals -log10([C]), with [C] in mol/L.

Ask: GET /values?readout=pIC50&item= `Cc1cc(Nc2ncnc3ccc(NC4=NC(C)(C)CO4)cc23)ccc1Oc1ccn2ncnc2c1`
Result: 5.57

Ask: GET /values?readout=pIC50&item= `Cc1n[nH]c(C)c1Cc1sc2c(c1C(=O)N1C[C@H](O)CO1)c(=O)n(C)c(=O)n2CC(C)C`
Result: 6.01

Where do these numbers come from? They come from paper PMC12894981.
